# System Tested: Metabotropic glutamate receptor 8 (Rattus norvegicus)
# Measurement Protocol: mGluR8 Gi/Go-coupled signaling modulation – cell-based, rat, thallium flux, HTS, primary screen (AID 488969)
# Test Parameters: HEK293 rat mGluR8, GIRK thallium flux, FluoZin2; at 10 µM; stronger effect = higher value
In all, about 110,000 compounds were measured (“z-score”: median about -0.1, highest 2% from about 2 on). The entries come from a sample that favours the highest values as a whole.
Task for the reader: assign each of the following compounds its reported z-score.

| Chemical Structure | z-score |
| --- | --- |
| Cc1cccc(N2C(=O)NC(=O)/C(=C\c3cc(C)n(-c4sc5c(c4C#N)CCCC5)c3C)C2=O)c1C | 0.0132 |
| O=[N+]([O-])c1cc2c(cc1CNCCc1ccc3c(c1)OCO3)OCO2 | 0.309 |

Query compound follows.
Can you share its z-score? I mean this compound: CC1(C)CN=C(Nc2ccc(F)c(F)c2)S1
-0.117

----------
I'd be grateful if you could share measured z-score for these entries.
# System Tested: Metabotropic glutamate receptor 8 (Rattus norvegicus)
# Measurement Protocol: mGluR8 Gi/Go-coupled signaling modulation – cell-based, rat, thallium flux, HTS, primary screen (AID 488969)
# Test Parameters: HEK293 rat mGluR8, GIRK thallium flux, FluoZin2; at 10 µM; stronger effect = higher value
Whole data set: some 110,000 compounds, median “z-score” near -0.1, cut for the highest 2% near 2. Many of the other results were omitted from the sample, so the highest values are more common in it than they were.
One number for each entry.

Return reported z-score values for all items listed beneath this line.
1. CC(C)Oc1cc(-n2c(=S)[nH]c3ccccc3c2=O)c(Cl)cc1Cl
2. CCCNS(=O)(=O)c1ccc(OCC(=O)N2CCN(Cc3ccc4c(c3)OCO4)CC2)cc1
3. Cc1ccc2nc(N3CCC(C(=O)N4CCC5(CC4)OCCO5)CC3)sc2c1

1: 12.9; 2: -0.266; 3: 4.28

Below are 7 compounds. Give each one its z-score.
1. COc1cc2[nH]c(=O)n(-c3ccccc3)c(=O)c2cc1OC
2. CCCCn1c(O)c(C(CC)=NCc2cc(OC)cc(OC)c2)c(=O)[nH]c1=O
3. Cn1c(O)c(C=NCc2ccco2)c(=O)n(C)c1=O
4. CC(C)OC12Oc3ccccc3C=C1N1CCC2CC1 (centres undefined)
5. CNCC1(c2ccccc2)CCCC1
6. O=c1[nH]c2ccccc2c(=O)n1-c1cccc(Cl)c1
7. COCCCn1c(-c2ccc(OC)cc2)cc(C(=O)NC2CCCCCCC2)c1C

1: -0.252; 2: -0.703; 3: -0.19; 4: 1.77; 5: 0.566; 6: -0.0839; 7: -0.648

----------
I'd appreciate it if you could supply z-score values for the items below.
# System Tested: Metabotropic glutamate receptor 8 (Rattus norvegicus) (UniProt P70579)
# Sequence (P70579 whole entry, looked up): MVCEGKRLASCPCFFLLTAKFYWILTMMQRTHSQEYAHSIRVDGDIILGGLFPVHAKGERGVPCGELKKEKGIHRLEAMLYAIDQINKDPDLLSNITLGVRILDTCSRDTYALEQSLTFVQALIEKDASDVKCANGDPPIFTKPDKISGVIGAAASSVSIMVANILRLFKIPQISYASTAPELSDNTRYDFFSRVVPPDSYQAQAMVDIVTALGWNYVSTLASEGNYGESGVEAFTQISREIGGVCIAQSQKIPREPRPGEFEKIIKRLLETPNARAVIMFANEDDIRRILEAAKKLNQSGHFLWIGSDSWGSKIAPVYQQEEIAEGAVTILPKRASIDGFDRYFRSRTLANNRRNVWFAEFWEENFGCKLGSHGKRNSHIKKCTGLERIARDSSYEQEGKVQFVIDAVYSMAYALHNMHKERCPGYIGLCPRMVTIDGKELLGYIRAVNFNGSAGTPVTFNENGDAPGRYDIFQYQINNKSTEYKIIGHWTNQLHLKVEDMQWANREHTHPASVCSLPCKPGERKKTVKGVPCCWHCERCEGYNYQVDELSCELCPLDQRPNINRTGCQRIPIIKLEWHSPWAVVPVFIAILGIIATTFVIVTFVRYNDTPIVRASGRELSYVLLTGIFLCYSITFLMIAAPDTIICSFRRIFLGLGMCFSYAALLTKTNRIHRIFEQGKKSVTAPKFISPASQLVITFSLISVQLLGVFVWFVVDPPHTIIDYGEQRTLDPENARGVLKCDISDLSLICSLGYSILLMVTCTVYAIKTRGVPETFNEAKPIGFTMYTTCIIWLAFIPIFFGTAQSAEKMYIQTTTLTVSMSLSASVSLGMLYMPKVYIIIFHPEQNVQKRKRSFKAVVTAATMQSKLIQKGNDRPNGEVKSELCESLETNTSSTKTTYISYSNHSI
# Measurement Protocol: mGluR8 Gi/Go-coupled signaling modulation – cell-based, rat, thallium flux, HTS, primary screen (AID 488969)
# Test Parameters: HEK293 rat mGluR8, GIRK (G protein-gated inwardly rectifying potassium channel) thallium flux, FluoZin2; at 10 µM; stronger effect = higher value
In all, about 110,000 compounds were measured (“z-score”: median about -0.1, highest 2% from about 2 on). Shown is part of a subset that was picked to be rich in the highest values. The source made the active and inactive calls.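 The calls were made as follows: active = z-score in the third read window above 3 or below -3; inactive = the rest.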

Solved cases below.
| Chemical Structure | System Tested | Measured Attribute | Experimental Value |
| --- | --- | --- | --- |
| O=C(COc1ccccc1)c1cn(Cc2ccccc2)c2ccccc12 | Metabotropic glutamate receptor 8 (Rattus norvegicus) (UniProt P70579) | z-score | -0.418 |
| COc1ccc(CC2C(=O)NC(=O)NC2=O)c(OC)c1 | Metabotropic glutamate receptor 8 (Rattus norvegicus) (UniProt P70579) | z-score | 13.6 (active) |
| CCOC(C(=O)OCCC[N+](C)(CC)CC)(c1ccccc1)c1ccccc1 | Metabotropic glutamate receptor 8 (Rattus norvegicus) (UniProt P70579) | z-score | 0.315 |

Now for the compound whose z-score we want.
Quick check: z-score of CCCC(=O)Nc1cc(C(=O)N2CCC3(CC2)OCCO3)ccc1S(=O)(=O)c1ccc(C)cc1 ?
-0.0584

Where do the numbers come from? From PubChem BioAssay AID488969.
